Experiment: Components of the Cytosolic LPS Sensing Pathway: Gene Identification via Genome-wide siRNA Screen;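 also: robust z of the log signal after scaling to non-targeting control siRNA wells of the plate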
Conditions: RAW264.7 macrophages, IL-1a HTRF, actives lie on both sides, screened at 100 nM (by protocol), cells primed 5 h with Pam3CSK4 first
Hit rate of the full screen: of about 53,000 sequences, about 3,700 (7%) were called active. The full list was thinned out, with actives kept by preference.
z-score vs -0.3: at or above is label 1, below is label 0.

# RECORD_SEQUENCE, CAT
records = [
    ("CGAACACUCGUUAAAGAAATT against Krt23", "label 1"),
    ("GGGACUGGAACAAUAGAGGTT against BC030500", "label 1"),
    ("GCAACAUGUAGGCAACAUCTT against Tmx2", "label 1"),
    ("GGAUUGUGGGUUUAUAUAATT against Olfr835", "label 1"),
    ("GCCAAGAUCCCACCAGUUATT against Neurl1b", "label 1"),
    ("GGUUAAUUCCAACAAAGCATT against Orc4", "label 0"),
    ("GGUACUUUGGAGAUUGUAATT against Rdh14", "label 0"),
    ("GGAAGCGGGAGAUAGAGGATT against Xpo6", "label 1"),
    ("GGAAGAAGAUCACCAUCAUTT against Ifi204", "label 0"),
    ("GGUGCUGAUGAAGUUCAUGTT against Ap1b1", "label 1"),
    ("GGCCUUGAUGGUGAAGAUGTT against Vstm4", "label 0"),
    ("GGUGACCAAGCAGAUAACATT against Prcc", "label 0"),
    ("GCAAAGUUCACCUAAUUGGTT against Lipc", "label 0"),
    ("GGUUUCUGUCCAGAUAAAATT against Ykt6", "label 0"),
    ("GGUUACAAAAGAACCAGAUTT against Pik3c2g", "label 1"),
    ("GGAUUUUCAAAGAGGACACTT against Cdca7l", "label 1"),
    ("GCCACACAGUGUGAUCCAATT against Nrip2", "label 0"),
    ("GGAGAUCAACAGGAUUUUGTT against Gna15", "label 0"),
]

----------
Experiment: Components of the Cytosolic LPS Sensing Pathway: Gene Identification via Genome-wide siRNA Screen;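 also: robust z of the log signal after scaling to non-targeting control siRNA wells of the plate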
Conditions: RAW264.7 macrophages, IL-1a HTRF, actives lie on both sides, screened at 100 nM (by protocol), cells primed 5 h with Pam3CSK4 first
About 3,700 (7%) of roughly 53,000 sequences were called active. This is one part of a sample in which actives are shown more often than they occur.
Each record here notes measured z-score.
RESULT_TYPE: z-score

# RECORD_SEQUENCE, RESULT_TYPE, NUMERIC_RESULT
rows = [
    ("GCCUUCAUGGGAUUUGUCUTT against Opn1sw", "z-score", -0.498),
    ("GGUGUUUACUUCCUCAGAATT against Slc9b2", "z-score", -0.373),
    ("CCUUCUCCUCGUGCAAGUATT against Cort", "z-score", 2.05),
    ("GCUGAAAUAGUUGCUAAAUTT against Usp6nl", "z-score", 0.443),
    ("CGCUAUGAGGCAGCUAAUUTT against Psma6", "z-score", -2.27),
    ("GCAGGGAGGCAUCUUCUUUTT against Olfr3", "z-score", -0.22),
    ("GCCUAGAAAGUCUGAAUAATT against Ifng", "z-score", 0.203),
    ("CCAGUAUAUUCUGAGGGUUTT against Isl1", "z-score", 0.374),
    ("GCAGGACAAGGACAACACUTT against Dyrk2", "z-score", -2.1),
    ("GGCCAAAUGAAGUCAAAAGTT against Srsf12", "z-score", -0.212),
    ("GGCAUCUCUUCCAAGUUGGTT against Mzt1", "z-score", 1.69),
    ("CGUCUAGGAAGGAAACAGGTT against Stk32a", "z-score", -1.54),
    ("GGAAGACUACAUAAGAGACTT against Cxcl9", "z-score", 0.103),
    ("GGACAACCAAAAUGCAUUUTT against Zic3", "z-score", 0.517),
    ("CGGAUUAUUGGUUAGAAAUTT against C230013L11Rik", "z-score", 1.26),
    ("GGCCAUGGUUCUAUAGGACTT against Zbtb37", "z-score", 0.764),
    ("GGAGACUUUCCAUUUGAAGTT against Fnbp1l", "z-score", -0.188),
    ("GGAAUCAGGAAUGCUACUUTT against Tsr1", "z-score", 0.216),
    ("CCUUCCUGUUGUCAUGAGATT against Eipr1", "z-score", -0.868),
    ("CCCUGAAGGCUUACUUUUUTT against Cfap299", "z-score", -0.231),
    ("GCGUGUUGAAUUGAGGAAGTT against Galnt11", "z-score", 4.15),
    ("GGCCAAACAACUGGUGAAGTT against Nelfe", "z-score", -0.832),
    ("GGAUUCAAAGCUUCCUUUATT against Eras", "z-score", 0.115),
    ("GGACAAAGGCUGUAUUUUCTT against Tgm3", "z-score", -1.07),
    ("CGGAUCCUACGGAAUUACGTT against Fpgs", "z-score", 0.99),
    ("GGAGACAGCAUUCAUUUAUTT against Wnt16", "z-score", 0.94),
    ("GGUUAAAAUGCCAUAACAATT against Ksr1", "z-score", -1.26),
    ("CGCGACAGAAUCAGUACAATT against Hnf4g", "z-score", 2.17),
    ("GGUCGUAAGACAGUUGUCCTT against 4932438H23Rik", "z-score", -0.715),
    ("GCAAUUAGUAACUGAGAAUTT against Dpp10", "z-score", 0.0628),
    ("GGCCACAGAUCUUCUGGUGTT against Calml4", "z-score", 1.08),
    ("GGUAAAGACAAGAUUAAAGTT against Cyp39a1", "z-score", -0.308),
    ("GGCCAGAACCACCAAAGAATT against Zc2hc1a", "z-score", -0.753),
    ("GGAAGAUGGCAAUAAUAACTT against Borcs7", "z-score", -2.26),
    ("CCUAUAACAUCCACCUUCATT against Yipf3", "z-score", -0.508),
    ("CUUUGUCAGCCAUGUAUCCTT against Tas2r104", "z-score", 0.468),
    ("GCUAGAAUUCAUGUUUCGUTT against Dgkg", "z-score", 0.487),
    ("GGAACUUCUACAGUCCUCCTT against Parp16", "z-score", 0.193),
    ("AUGUCAGCGGCCCUAGAUGTT against Adam34l", "z-score", -2.09),
    ("GGUACAAGAUAUUGUGAAATT against Fgd3", "z-score", 0.0612),
    ("GCGAAUUGGAACAGCUGACTT against Sh3glb1", "z-score", -0.982),
    ("GCCAACAGUAACGGUAUUGTT against Patz1", "z-score", -2.04),
]

----------
Listed next: entries and their corresponding z-score.
Assay: Components of the Cytosolic LPS Sensing Pathway: Gene Identification via Genome-wide siRNA Screen;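 also: robust z of the log signal after scaling to non-targeting control siRNA wells of the plate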
Conditions: RAW264.7 macrophages, IL-1a HTRF, actives lie on both sides, screened at 100 nM (by protocol), cells primed 5 h with Pam3CSK4 first
The campaign covered roughly 53,000 sequences. About 3,700 (7%) were called active. Many of the other results were omitted from the sample, so actives are more common in it than they were.
RESULT_TYPE: z-score

# RECORD_SEQUENCE, NUMERIC_RESULT
rows = [
    ("CGGUUAGUCUGUCAGUAUCTT against Xrcc3", 0.488),
    ("CCCAACAAGAGUAUCUAUGTT against Foxh1", -0.125),
    ("GGUCUUUGACAGAAUAAAATT against Yipf1", 1.94),
    ("GGACACCUGAAGUUAGUUUTT against Ndufaf1", 0.622),
    ("CGAGAGCUAAAAAGAGUAATT against Chd1", 0.42),
    ("GGGAGAAAAGGGUCAAAAATT against Marco", 0.819),
    ("AGAGAGAUAUUGUUCAUCATT against Psg22", 0.11),
    ("UUCCAUUCAUAUGUCUUGATT against Tas2r109", 0.00348),
    ("CGGCUUACGCAUGUCUAUGTT against Polr2a", -2.01),
    ("GGAUUUUACAUUUCUACACTT against Tmprss15", 2.14),
    ("GGAGCUACGAAGAGGAUCUTT against Wdr45b", -2.69),
    ("GAUCUAGGACAGCUUAGAUTT against Avpr1b", -0.955),
    ("CCUUACCCAGCAAUAAAAATT against Thegl", 0.379),
    ("GGACAUCGAAGUCCAACACTT against Plekhm1", -0.501),
    ("CCCACCUUCCAAAAGGAUCTT against 5031434C07Rik", -0.882),
    ("GGCCAGAACUACGAAGCCATT against Capn12", 0.981),
    ("GGUUCUCAUCAUUUCAACUTT against Sh3bgrl", -1.61),
]

Origin of values: PubChem BioAssay AID1508600
